Recorded pEC50 by entry
Target: delF508-CFTR (Homo sapiens, UniProt P13569, DEL508-508)
Construct: Unaltered CFBE41o− cells were used as the model; endogenous in cells
Sequence (P13569 with tags, fused parts or gaps DEL508-508): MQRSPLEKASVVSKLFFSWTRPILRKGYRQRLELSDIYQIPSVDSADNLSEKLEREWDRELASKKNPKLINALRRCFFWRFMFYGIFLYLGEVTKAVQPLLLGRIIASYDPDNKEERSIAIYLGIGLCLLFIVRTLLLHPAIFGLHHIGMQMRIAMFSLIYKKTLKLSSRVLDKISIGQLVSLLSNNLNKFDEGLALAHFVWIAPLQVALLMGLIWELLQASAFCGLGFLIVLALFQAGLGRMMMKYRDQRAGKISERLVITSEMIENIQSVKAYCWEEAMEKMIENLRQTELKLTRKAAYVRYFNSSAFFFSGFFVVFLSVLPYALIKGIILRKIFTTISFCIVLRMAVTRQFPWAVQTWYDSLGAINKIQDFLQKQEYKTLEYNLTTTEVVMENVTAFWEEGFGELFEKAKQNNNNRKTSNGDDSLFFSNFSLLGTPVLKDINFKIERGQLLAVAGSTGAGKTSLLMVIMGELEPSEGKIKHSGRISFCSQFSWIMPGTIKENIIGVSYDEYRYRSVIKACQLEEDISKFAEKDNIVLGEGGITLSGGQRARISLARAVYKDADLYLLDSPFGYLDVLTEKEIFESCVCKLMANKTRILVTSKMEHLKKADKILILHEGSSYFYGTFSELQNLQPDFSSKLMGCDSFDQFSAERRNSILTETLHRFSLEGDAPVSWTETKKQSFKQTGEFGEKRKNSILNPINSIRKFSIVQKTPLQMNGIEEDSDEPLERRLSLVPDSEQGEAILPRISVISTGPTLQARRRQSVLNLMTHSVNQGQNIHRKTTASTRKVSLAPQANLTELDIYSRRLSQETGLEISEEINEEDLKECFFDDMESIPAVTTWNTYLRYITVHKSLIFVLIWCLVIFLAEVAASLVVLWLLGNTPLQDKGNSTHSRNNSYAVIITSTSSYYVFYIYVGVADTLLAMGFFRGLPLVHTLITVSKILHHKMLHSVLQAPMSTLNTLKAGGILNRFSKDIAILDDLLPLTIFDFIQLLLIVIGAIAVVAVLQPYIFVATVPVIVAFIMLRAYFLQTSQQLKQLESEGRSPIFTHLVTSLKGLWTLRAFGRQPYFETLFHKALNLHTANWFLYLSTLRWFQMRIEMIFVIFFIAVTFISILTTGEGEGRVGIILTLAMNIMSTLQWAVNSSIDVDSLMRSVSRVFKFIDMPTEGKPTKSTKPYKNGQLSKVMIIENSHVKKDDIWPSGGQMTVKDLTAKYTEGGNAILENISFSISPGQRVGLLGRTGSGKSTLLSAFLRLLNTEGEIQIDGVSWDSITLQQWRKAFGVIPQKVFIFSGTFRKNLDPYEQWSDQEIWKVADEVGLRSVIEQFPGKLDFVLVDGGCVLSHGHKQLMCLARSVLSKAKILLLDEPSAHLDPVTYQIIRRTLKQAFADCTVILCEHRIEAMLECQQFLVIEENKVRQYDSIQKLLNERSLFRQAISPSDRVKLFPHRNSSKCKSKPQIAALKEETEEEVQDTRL
Test: SPQ halide-sensitive fluorescence dye profiling assay (rescue of halide efflux)
Conditions: SPQ assay, 8-point concentration-response curve, CFBE41o− cells
Procedure: The method of profiling can include detecting the rescue of halide efflux from a cell. The step of detecting a rescue of halide efflux from the cell can be monitored using the halide quenched dye 6-methoxy-N-(3-sulfopropyl)-quinolinium (SPQ, Molecular Probes Inc., Eugene, Oreg.). In this method, cells are treated with a compound as described herein for a period of time (e.g., 48 hours). The rescue or correction of halide efflux is then detected using the SPQ assay with the halide dye. […]
pEC50: −log10 of the molar value.
measured_parameter: pEC50

{"compound": "Cc1nn2c(C)c(C(=O)O)nnc2c1-c1cc(Cl)cc(Cl)c1 [Compound C-22]", "result_number": 5.89}
{"compound": "Cc1nn2c(C)c(CS(C)(=O)=O)nnc2c1-c1ccc(Cl)c(Cl)c1 [Compound C-70]", "result_number": 5.43}
{"compound": "CNC(=O)c1nnc2c(-c3ccc(Cl)c(Cl)c3)c(C)nn2c1C [Compound C-30]", "result_number": 4.58}
{"compound": "Cc1nn2c(C)c(C(=O)O)cnc2c1-c1ccc(Cl)c(Cl)c1 [Compound C-45]", "result_number": 5.60}
{"compound": "CCCOc1ccc(-c2c(C)nn3c(C)c(C(=O)OCC)nnc23)cc1 [Compound C-18]", "result_number": 5.51}
{"compound": "Cc1nn2c(N)c(C(=O)O)nnc2c1-c1ccc(Cl)cc1 [Compound C-27]", "result_number": 5.48}
{"compound": "Cc1nn2c(C)c(C(=O)Oc3ccccc3)nnc2c1-c1ccc(Cl)c(Cl)c1 [Compound C-35]", "result_number": 6.15}
{"compound": "CCOC(=O)c1nnc2c(-c3ccc(Cl)cc3)cnn2c1C [Compound C-12]", "result_number": 6.00}
{"compound": "CCOC(=O)c1nnc2c(-c3ccc(OC)c(OC)c3)c(C)nn2c1C [Compound C-16]", "result_number": 5.66}
{"compound": "CCCCOc1ccc(-c2c(C)nn3c(C)c(C(=O)O)nnc23)cc1 [Compound C-54]", "result_number": 5.17}
{"compound": "CCOC(=O)c1nnc2c(-c3ccc(Cl)c(Cl)c3)c(C)nn2c1C [Compound C-15]", "result_number": 6.52}
